- Experimental system: HA1 adenosine receptor (Homo sapiens)
- Sequence (P30542 1-326): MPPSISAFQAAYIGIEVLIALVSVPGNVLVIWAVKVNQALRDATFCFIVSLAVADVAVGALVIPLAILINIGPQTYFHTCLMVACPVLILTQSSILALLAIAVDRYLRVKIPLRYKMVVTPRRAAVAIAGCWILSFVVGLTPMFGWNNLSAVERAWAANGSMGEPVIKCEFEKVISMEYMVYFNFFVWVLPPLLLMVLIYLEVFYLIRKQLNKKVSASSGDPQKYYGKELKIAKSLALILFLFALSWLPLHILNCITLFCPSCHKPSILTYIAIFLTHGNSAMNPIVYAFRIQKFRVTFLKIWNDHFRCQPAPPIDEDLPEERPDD
- Test method notes: Human adenosine A1 receptor affinity (Ki hA1)
- Format: binding
- Condition parameters: affinity to human adenosine A1 receptor
pKi: −log10 of the molar value.
I would appreciate it if you labelled entries Met when pKi is 6 or higher, otherwise Not met.

[
  {
    "Compound": "Nc1cc(C(=O)N2CCOCC2)cc2nc(-c3ccco3)nn12 [Example 108]",
    "Class": "Not met"
  },
  {
    "Compound": "Nc1cc(C(=O)NCc2ccccc2)cc2nc(-c3ccc(Br)o3)nn12 [Example 166]",
    "Class": "Met"
  },
  {
    "Compound": "CC(C)N(Cc1ccccc1)C(=O)c1cc(N)n2nc(-c3ccccc3O)nc2c1 [Example 121]",
    "Class": "Met"
  },
  {
    "Compound": "Nc1cc(C(=O)N2CCSCC2)cc2nc(-c3ccc(Cl)o3)nn12 [Example 256]",
    "Class": "Met"
  },
  {
    "Compound": "COc1ccc(CNC(=O)c2cc(N)n3nc(-c4nccs4)nc3c2)cc1OC [Example 208]",
    "Class": "Not met"
  },
  {
    "Compound": "Nc1cc(C(=O)N2CCCC2)cc2nc(-c3ccoc3)nn12 [Example 99]",
    "Class": "Not met"
  },
  {
    "Compound": "Nc1cc(C(=O)N2CCCCC2)cc2nc(-c3ccco3)nn12 [Example 107]",
    "Class": "Not met"
  },
  {
    "Compound": "C#CCN(C)C(=O)c1cc(N)n2nc(-c3nccs3)nc2c1 [Example 282]",
    "Class": "Not met"
  },
  {
    "Compound": "CC1CCN(C(=O)c2cc(N)n3nc(-c4ccc(Br)o4)nc3c2)CC1 [Example 337]",
    "Class": "Met"
  },
  {
    "Compound": "CN(CCc1ccccc1)C(=O)c1cc(N)n2nc(-c3ccc(Br)o3)nc2c1 [Example 306]",
    "Class": "Met"
  },
  {
    "Compound": "Cc1ccc(-c2nc3cc(C(=O)NCc4ccc(Cl)cc4)cc(N)n3n2)o1 [Example 212]",
    "Class": "Met"
  },
  {
    "Compound": "CC1C=CC(C)N1C(=O)c1cc(N)n2nc(-c3nccs3)nc2c1 (stereo not shown) [Example 302]",
    "Class": "Not met"
  },
  {
    "Compound": "Nc1cc(C(=O)NC2CCC2)cc2nc(-c3cccnc3)nn12 [Example 81]",
    "Class": "Not met"
  },
  {
    "Compound": "Nc1cc(C(=O)N2CCCC2)cc2nc(-c3cc(Br)co3)nn12 [Example 170]",
    "Class": "Met"
  },
  {
    "Compound": "Nc1cc(C(=O)N2CC=CC2)cc2nc(-c3nccs3)nn12 [Example 281]",
    "Class": "Not met"
  }
]

Value source: patent US6506772B1
